# measurement_target: T1, TNFR1 (Homo sapiens, UniProt P19438)
# T1 chain: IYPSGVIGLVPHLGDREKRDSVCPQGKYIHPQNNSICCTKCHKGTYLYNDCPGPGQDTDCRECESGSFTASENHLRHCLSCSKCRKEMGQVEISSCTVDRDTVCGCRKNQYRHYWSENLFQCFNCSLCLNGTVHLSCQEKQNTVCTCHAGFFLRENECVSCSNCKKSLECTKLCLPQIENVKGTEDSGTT
# method_description: yeast display SC50
assay_endpoint: apparent Kd (screen)

[
  {
    "binder": "K17F (designed binder) SMEEEVEKAAKEYEKKFKEAIEKHLEKLKAKDKEAAERFLKELEEAAKEYAKDEAKTMSEEEAKRRAKKYKEKVLLSELSEEEQKEIKEAEEKLVRTILKYVEEAAK",
    "assay_endpoint": "apparent Kd (screen)",
    "measured_value": "0.446 nM"
  }
]

Consider now this further binder.
Query string: Tell me apparent Kd (screen) reported for R96P (designed binder) SMEEEVEKAAKEYEKKKKEAIEKHLEKLKAKDKEAAERFLKELEEAAKEYAKDEAKTMSEEEAKRRAKKYKEKVLLSELSEEEQKEIKEAEEKLVPTILKYVEEAAK
Result string: 1.27 nM
